# systemName: Neutral endopeptidase (E.C. 3.4.24.11) (Sus scrofa)
# Sequence (A0A4X1SQE6 entry or part of it): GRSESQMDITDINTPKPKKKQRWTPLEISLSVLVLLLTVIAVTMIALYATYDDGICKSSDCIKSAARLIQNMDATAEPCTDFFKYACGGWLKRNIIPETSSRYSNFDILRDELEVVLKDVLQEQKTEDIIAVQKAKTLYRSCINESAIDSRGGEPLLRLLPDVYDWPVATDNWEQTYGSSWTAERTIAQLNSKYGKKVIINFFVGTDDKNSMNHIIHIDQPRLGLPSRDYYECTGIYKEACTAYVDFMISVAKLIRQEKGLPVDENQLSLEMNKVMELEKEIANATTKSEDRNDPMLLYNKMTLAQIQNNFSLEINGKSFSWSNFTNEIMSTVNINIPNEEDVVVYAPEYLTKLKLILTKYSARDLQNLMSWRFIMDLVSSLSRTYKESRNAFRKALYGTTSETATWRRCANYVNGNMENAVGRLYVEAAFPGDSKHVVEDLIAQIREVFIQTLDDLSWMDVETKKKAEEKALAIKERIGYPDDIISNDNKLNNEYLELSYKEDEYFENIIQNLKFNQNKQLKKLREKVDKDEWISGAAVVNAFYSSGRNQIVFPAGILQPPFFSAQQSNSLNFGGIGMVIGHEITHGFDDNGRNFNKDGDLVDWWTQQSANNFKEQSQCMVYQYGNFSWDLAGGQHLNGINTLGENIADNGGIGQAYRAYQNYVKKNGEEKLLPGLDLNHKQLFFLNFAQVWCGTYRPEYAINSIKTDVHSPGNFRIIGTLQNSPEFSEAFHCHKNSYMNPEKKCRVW
# procedureSummary: NEP enzyme inhibition assay (methionin-enkephalin substrate, HPLC)
# Type: biochemical, pig
pIC50: −log10 of the molar value.
Listing of recorded pIC50 by entry.

{"molecule": "CC(C)C[C@H](NP(=O)(O)O[C@@H]1O[C@@H](C)[C@H](O)[C@@H](O)[C@H]1O)C(=O)N[C@@H](Cc1c[nH]c2ccccc12)C(=O)O [Phosphoramidon]", "pIC50": 8.70}
{"molecule": "O=C(O)CNC(=O)C(CS)Cc1ccccc1 (centres unmarked) [Thiorphan]", "pIC50": 8.62}

---

# systemName: His6-tagged IGS5 ectodomain (Homo sapiens, UniProt Q495T6)
# Construct: Enzyme: IGS-5 (sol hu)(his)6; or: His6-tagged IGS5 ectodomain;
# Sequence (Q495T6 49-779 limits assumed): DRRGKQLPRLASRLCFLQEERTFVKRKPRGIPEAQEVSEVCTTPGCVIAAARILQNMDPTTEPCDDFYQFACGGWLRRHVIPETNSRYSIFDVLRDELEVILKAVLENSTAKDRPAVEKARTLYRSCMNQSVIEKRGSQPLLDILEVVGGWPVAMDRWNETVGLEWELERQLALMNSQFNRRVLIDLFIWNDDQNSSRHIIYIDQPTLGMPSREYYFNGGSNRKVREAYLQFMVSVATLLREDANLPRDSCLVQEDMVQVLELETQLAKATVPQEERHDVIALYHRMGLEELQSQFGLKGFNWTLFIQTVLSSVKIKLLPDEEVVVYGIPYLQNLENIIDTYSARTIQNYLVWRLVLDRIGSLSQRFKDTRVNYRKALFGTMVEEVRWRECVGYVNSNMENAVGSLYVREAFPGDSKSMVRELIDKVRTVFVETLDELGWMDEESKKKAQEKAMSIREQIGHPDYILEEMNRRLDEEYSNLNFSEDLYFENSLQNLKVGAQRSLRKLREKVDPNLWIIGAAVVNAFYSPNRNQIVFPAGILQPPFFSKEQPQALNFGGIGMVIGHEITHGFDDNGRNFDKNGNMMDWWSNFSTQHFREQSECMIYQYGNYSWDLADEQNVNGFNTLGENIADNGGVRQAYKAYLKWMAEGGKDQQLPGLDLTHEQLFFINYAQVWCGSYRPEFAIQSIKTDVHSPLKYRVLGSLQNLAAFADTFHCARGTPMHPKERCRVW
# procedureSummary: IGS5 enzyme inhibition assay (fluorescence-quenched big-ET-1 analog, HPLC)
# assayConditions: conversion of labeled fluorescent big-ET-1 analog
pIC50: −log10 of the molar value.
Listing of recorded pIC50 by entry.
quantityKind: pIC50

{"compound": "O=C(O)C(Cc1ccc2c(c1)oc1ccccc12)NCP(=O)(O)O (centres unmarked)", "valueQualifier": "=", "assayResult": 5.89}
{"compound": "O=C(O)CNC(=O)C(CS)Cc1ccccc1 (centres unmarked)", "valueQualifier": "<", "assayResult": 6.00}
{"compound": "Cc1nn(-c2ccccc2)c(NC(=O)NS(=O)(=O)c2ccc(Cl)cc2)c1C#N.[Na] [monosodium salt]", "valueQualifier": "<", "assayResult": 5.00}
{"compound": "CC(C)C[C@H](NP(=O)(O)O[C@@H]1O[C@@H](C)[C@H](O)[C@@H](O)[C@H]1O)C(=O)N[C@@H](Cc1c[nH]c2ccccc12)C(=O)O", "valueQualifier": "=", "assayResult": 7.74}
{"compound": "CCOC(=O)[C@H](CCc1ccccc1)CC1(C(=O)N[C@H]2CCc3ccccc3N(CC(=O)O)C2=O)CCCC1", "valueQualifier": "=", "assayResult": 8.92}

---

# systemName: Recombinant human COOH-terminal His6-tagged endothelin converting enzyme-1 (Homo sapiens)
# Construct: His6 (C)
# Sequence (P42892 whole entry): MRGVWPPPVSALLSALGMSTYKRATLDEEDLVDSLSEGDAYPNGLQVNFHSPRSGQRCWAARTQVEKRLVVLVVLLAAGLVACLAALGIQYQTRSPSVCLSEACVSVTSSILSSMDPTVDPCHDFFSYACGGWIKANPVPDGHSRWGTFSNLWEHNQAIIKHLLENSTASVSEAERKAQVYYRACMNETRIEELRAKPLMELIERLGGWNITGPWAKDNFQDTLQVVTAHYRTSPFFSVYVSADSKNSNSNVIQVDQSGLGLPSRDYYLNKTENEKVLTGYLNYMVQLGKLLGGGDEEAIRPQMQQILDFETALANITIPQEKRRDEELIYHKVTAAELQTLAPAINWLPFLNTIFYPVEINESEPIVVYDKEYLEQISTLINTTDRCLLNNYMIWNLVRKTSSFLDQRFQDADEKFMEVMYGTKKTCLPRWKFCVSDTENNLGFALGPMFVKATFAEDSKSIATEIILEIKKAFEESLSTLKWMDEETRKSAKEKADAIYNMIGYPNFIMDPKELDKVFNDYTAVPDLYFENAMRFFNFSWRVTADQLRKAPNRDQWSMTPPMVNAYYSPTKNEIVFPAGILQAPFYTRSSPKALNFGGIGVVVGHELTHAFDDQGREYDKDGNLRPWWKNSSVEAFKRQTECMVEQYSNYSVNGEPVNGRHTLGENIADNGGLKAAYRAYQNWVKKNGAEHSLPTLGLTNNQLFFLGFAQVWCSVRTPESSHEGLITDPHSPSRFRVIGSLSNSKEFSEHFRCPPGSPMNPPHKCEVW
# procedureSummary: ECE enzyme inhibition assay (17 amino acid truncated big endothelin-1, HPLC)
Listing of recorded IC50 by entry.
quantityKind: IC50 (nM)

{"molecule": "O=C(O)CNC(=O)C(CS)Cc1ccccc1 (centres unmarked) [Thiorphan]", "unitName": "nM", "valueQualifier": ">", "assayResult": 10000}
{"molecule": "O=C(O)C(Cc1ccc2c(c1)oc1ccccc12)NCP(=O)(O)O (centres unmarked) [CGS-35066]", "unitName": "nM", "valueQualifier": "=", "assayResult": 5}

---

# systemName: Neutral endopeptidase (E.C. 3.4.24.11) (Sus scrofa)
# procedureSummary: NEP enzyme inhibition assay (methionin-enkephalin substrate, HPLC)
# Type: biochemical, pig
# assayConditions: 20 μM methionin-enkephalin; read-out: NEP IC50
quantityKind: IC50 (nM)

{"compound": "O=C(O)C(Cc1ccc2c(c1)oc1ccccc12)NCP(=O)(O)O (centres unmarked)", "valueQualifier": "=", "assayResult": 42}
{"compound": "Cc1nn(-c2ccccc2)c(NC(=O)NS(=O)(=O)c2ccc(Cl)cc2)c1C#N.[Na] [monosodium salt]", "valueQualifier": ">", "assayResult": 1000}
